biological target: UniProt P20309; experiment: [3H]-methylscopolamine binding to recombinant human M3 receptors; conditions: BSR-M3H cell membranes, 60 minutes at 25° C.
Sequence (P20309 whole entry): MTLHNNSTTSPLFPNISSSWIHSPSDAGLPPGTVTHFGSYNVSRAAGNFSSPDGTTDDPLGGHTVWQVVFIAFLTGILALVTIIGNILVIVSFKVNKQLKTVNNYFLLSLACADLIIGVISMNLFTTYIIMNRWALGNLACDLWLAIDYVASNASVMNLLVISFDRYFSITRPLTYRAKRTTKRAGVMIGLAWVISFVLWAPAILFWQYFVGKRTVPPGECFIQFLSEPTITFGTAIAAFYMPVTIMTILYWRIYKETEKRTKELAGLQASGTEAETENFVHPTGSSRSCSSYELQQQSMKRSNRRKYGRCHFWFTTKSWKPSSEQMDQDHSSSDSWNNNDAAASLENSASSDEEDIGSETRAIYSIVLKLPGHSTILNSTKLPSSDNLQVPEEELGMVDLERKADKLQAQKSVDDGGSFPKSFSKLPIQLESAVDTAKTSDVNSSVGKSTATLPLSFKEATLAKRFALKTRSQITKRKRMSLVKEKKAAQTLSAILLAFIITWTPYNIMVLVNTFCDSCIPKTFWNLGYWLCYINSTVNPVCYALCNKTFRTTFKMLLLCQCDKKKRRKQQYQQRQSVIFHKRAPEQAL
assay endpoint: IC50 (nM)

1: CC(C)N(CC[C@H](c1ccccc1)c1cc(CO)ccc1O)C(C)C [(+)HO-/-OH, reference compound]
2: CC(C)N(CCC(c1ccccc1)c1cc(COC(=O)c2ccccc2)ccc1OC(=O)c1ccccc1)C(C)C (racemic)
3: CC(=O)OCc1ccc(OC(=O)c2ccccc2)c(C(CCN(C(C)C)C(C)C)c2ccccc2)c1 (racemic)
q: Falling order of IC50, please. Respond with the label ranking, as requested.
a: 3, 2, 1
(3: 5400 nM, 2: 2400 nM, 1: 8.7 nM)
